All values here come from patent US20220409727A1.

system: human glioblastoma astrocytoma (U373) cells; test: (Photo-)cytotoxicity on 2D cell monolayers, resazurin assay, U373; conditions: read-out: IC50 480 nm (10 min, 3.1 J/cm^2); U373, irradiation 480 nm (10 min, 3.1 J/cm^2); compounds 1-3 as chloride salts
property-name: IC50 (µM)
Answers are plain numbers, in µM.

{"structure": "C(=C\\c1ccnc(-c2cc(/C=C/c3ccccc3)ccn2)c1)/c1ccccc1.C(=C\\c1ccnc(-c2cc(/C=C/c3ccccc3)ccn2)c1)/c1ccccc1.C(=C\\c1ccnc(-c2cc(/C=C/c3ccccc3)ccn2)c1)/c1ccccc1.F[P-](F)(F)(F)(F)F.F[P-](F)(F)(F)(F)F.[Ru+2]", "IC50, µM": 51.7}

Please look at the items below and tell me IC50 for each one, in order.
1. COc1ccc(/C=C/c2ccnc(-c3cc(/C=C/c4ccc(OC)cc4)ccn3)c2)cc1.COc1ccc(/C=C/c2ccnc(-c3cc(/C=C/c4ccc(OC)cc4)ccn3)c2)cc1.COc1ccc(/C=C/c2ccnc(-c3cc(/C=C/c4ccc(OC)cc4)ccn3)c2)cc1.F[P-](F)(F)(F)(F)F.F[P-](F)(F)(F)(F)F.[Ru+2]
2. CN(C)c1ccc(/C=C/c2ccnc(-c3cc(/C=C/c4ccc(N(C)C)cc4)ccn3)c2)cc1.F[P-](F)(F)(F)(F)F.F[P-](F)(F)(F)(F)F.[Ru+2].c1ccc(-c2ccccn2)nc1.c1ccc(-c2ccccn2)nc1

[41, 8.3]
